Molecular target: full-length AR (Homo sapiens, UniProt P10275, T878A)
Construct: Transcriptional activity of full-length AR was assessed in LNCaP cells; endogenous in cells; host or cells: LNCaP
Sequence (P10275 whole entry T878A): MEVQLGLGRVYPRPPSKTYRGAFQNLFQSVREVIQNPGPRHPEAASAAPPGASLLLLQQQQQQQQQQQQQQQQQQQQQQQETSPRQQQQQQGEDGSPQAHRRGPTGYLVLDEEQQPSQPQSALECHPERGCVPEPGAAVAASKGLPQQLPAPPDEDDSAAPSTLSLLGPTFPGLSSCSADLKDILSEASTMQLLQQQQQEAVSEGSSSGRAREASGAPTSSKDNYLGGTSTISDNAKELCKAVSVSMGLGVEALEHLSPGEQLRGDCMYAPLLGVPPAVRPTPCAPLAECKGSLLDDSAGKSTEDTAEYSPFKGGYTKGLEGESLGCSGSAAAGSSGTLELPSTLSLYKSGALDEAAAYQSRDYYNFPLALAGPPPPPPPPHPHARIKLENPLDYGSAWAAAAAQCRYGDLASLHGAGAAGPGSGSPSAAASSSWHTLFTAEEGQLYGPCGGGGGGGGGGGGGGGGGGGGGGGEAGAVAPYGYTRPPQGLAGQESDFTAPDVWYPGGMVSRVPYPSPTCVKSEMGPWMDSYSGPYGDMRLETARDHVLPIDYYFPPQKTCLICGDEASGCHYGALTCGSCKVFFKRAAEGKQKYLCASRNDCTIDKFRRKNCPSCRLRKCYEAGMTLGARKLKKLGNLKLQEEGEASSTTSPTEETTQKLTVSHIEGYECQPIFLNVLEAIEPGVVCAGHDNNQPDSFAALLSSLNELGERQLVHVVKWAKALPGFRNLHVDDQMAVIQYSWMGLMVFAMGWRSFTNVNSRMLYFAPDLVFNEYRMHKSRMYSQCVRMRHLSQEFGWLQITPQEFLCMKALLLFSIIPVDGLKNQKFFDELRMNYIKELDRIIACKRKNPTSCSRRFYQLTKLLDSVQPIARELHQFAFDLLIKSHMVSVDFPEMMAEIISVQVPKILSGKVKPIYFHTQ
Assay: PSA(6.1 kb)-luciferase AR-driven reporter assay in LNCaP cells
Format: cell-based
Conditions: LNCaP, R1881 1 nM, 24 h; read-out: IC50, androgen-induced PSA(6.1 kb)-luciferase activity
outcomeMeasure: IC50 (µM)
Give bare numbers, in µM.

IC50 reading for O=C1C=CC(=O)c2c(O)cccc21 : 10.9
